The values you see were collected from the supplement of paper PMC7877785.

# method notes: self-splicing fitness, log relative to wild type (ln ratio); higher = more splicing; Tetrahymena group I intron in knt gene, E. coli kanamycin selection, DiMSum; sequences stand for … in CUCUCU…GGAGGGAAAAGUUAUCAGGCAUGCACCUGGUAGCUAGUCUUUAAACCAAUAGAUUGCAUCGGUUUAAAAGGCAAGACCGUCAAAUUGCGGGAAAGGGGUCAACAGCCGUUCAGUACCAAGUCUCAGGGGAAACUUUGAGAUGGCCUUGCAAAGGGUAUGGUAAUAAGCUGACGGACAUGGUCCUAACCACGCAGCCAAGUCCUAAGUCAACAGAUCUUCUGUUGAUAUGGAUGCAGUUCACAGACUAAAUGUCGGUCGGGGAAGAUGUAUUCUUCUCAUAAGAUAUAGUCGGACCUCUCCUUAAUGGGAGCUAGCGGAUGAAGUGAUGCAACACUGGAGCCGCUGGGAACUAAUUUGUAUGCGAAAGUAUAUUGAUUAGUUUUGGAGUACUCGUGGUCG;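 note: selection with 25 µg/mL kanamycin versus none on LB agar overnight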
# condition set: 37 °C
Would you kindly list self-splicing fitness (ln) for each of these sequences?
Reply briefly: the number, and no unit.

(Q) Endpoint output: self-splicing fitness (ln) of UAGCAGCAAUAUUACGCCUC . Value?
(A) -1.11

(Q) Endpoint output: self-splicing fitness (ln) of UUAUAGCAAUAUUACGUUAA . Value?
(A) -1.61

(Q) Endpoint output: self-splicing fitness (ln) of GAGGAGCAAUAUUACGUUGA . Value?
(A) -2.24

(Q) Endpoint output: self-splicing fitness (ln) of CUACAGCAAUAUUACGGGUG . Value?
(A) -0.538

(Q) Endpoint output: self-splicing fitness (ln) of UAACAGCAAUAUUACGAGUC . Value?
(A) -2.05

(Q) Endpoint output: self-splicing fitness (ln) of AAGGAGCAAUAUUACGCAAU . Value?
(A) -1.71

(Q) Endpoint output: self-splicing fitness (ln) of GAGGAGCAAUAUUACGAGUG . Value?
(A) -2.5

(Q) Endpoint output: self-splicing fitness (ln) of UGGAAGCAAUAUUACGUAUG . Value?
(A) -0.289

(Q) Endpoint output: self-splicing fitness (ln) of UAGCAGCAAUAUUACGUUGU . Value?
(A) -3.08

(Q) Endpoint output: self-splicing fitness (ln) of GCGGAGCAAUAUUACGAACU . Value?
(A) -0.902

(Q) Endpoint output: self-splicing fitness (ln) of ACGGAGCAAUAUUACGAUAC . Value?
(A) -1.98

(Q) Endpoint output: self-splicing fitness (ln) of CCGCAGCAAUAUUACGAUAG . Value?
(A) 0.602

(Q) Endpoint output: self-splicing fitness (ln) of AAGCAGCAAUAUUACGCUGU . Value?
(A) -2.7

(Q) Endpoint output: self-splicing fitness (ln) of ACUUAGCAAUAUUACGAACA . Value?
(A) -0.724

(Q) Endpoint output: self-splicing fitness (ln) of CAACAGCAAUAUUACGCUGC . Value?
(A) -2.21

(Q) Endpoint output: self-splicing fitness (ln) of AGUCAGCAAUAUUACGAGUG . Value?
(A) -0.966
